Hello, the source for this data is patent US11053219B2, in case you need it.

# Tested on: IL12-induced p-STAT4 in human PBMC
# measurement_notes: IL-12 induced pSTAT4 in human PBMC
# Assay type: cell-based
# test_settings: human PBMC, IL-12 10 ng/ml; read-out: p-STAT4 IC50
pIC50: −log10 of the molar value.
This section presents molecules with their documented pIC50 values.
assay_endpoint: pIC50

• [2H]C([2H])([2H])NC(=O)c1nnc(NC(=O)N2CC(C)C2)cc1Nc1cccc(-c2ncn(C)n2)c1OC = > 7.00
• [2H]C([2H])([2H])NC(=O)c1nnc(N2CCN(C3(C#N)CC3)C2=O)cc1Nc1cccc(-c2ncn(C)n2)c1OC = > 7.00
• [2H]C([2H])([2H])NC(=O)c1nnc(N2CCN(C3COC3)C2=O)cc1Nc1cccc(-c2ncn(C)n2)c1OC = 6.00 to 7.00
• [2H]C([2H])([2H])NC(=O)c1nnc(N2CCC2=O)cc1Nc1cccc(-c2ncn(C)n2)c1OC = 6.00 to 7.00
• [2H]C([2H])([2H])NC(=O)c1nnc(N2CCN(c3ccccc3)C2=O)cc1Nc1cccc(-c2ncn(C)n2)c1OC = 6.00 to 7.00
• [2H]C([2H])([2H])NC(=O)c1nnc(N2CCN(C3CCCC3)C2=O)cc1Nc1cccc(-c2ncn(C)n2)c1OC = > 7.00
• [2H]C([2H])([2H])NC(=O)c1nnc(NC(=O)N2CCC2)cc1Nc1cccc(-c2ncn(C)n2)c1OC = > 7.00
• [2H]C([2H])([2H])NC(=O)c1nnc(NC(=O)N2CC(F)(F)C2)cc1Nc1cccc(-c2ncn(C)n2)c1OC = > 7.00
• [2H]C([2H])([2H])NC(=O)c1nnc(N2CCN(C)C2=O)cc1Nc1cccc(-c2ncn(C)n2)c1OC = > 7.00
• [2H]C([2H])([2H])NC(=O)c1nnc(N2CC(C)(C)C2)cc1Nc1cccc(-c2ncn(C)n2)c1OC = 5.00 to 6.00
• [2H]C([2H])([2H])NC(=O)c1c(Nc2cccc(-c3ncn(C)n3)c2OC)cc(NC(=O)C2CC2)nc1F = 6.00 to 7.00
• [2H]C([2H])([2H])NC(=O)c1nnc(N2CCN(C(C)C)C2=O)cc1Nc1cccc(-c2ncn(C([2H])([2H])[2H])n2)c1OC = > 7.00
• [2H]C([2H])([2H])NC(=O)c1nnc(N2CCN(CCCC)C2=O)cc1Nc1cccc(-c2ncn(C)n2)c1OC = > 7.00
• [2H]C1([2H])CN(C(=O)Nc2cc(Nc3cccc(-c4ncn(C)n4)c3OC)c(C(=O)NC([2H])([2H])[2H])nn2)C1 = > 7.00
